- Tested on: Dd2
- ASSAY COMMENT: qHTS profiling for inhibitors of Plasmodium falciparum proliferation (AID 504749); further: nearly all actives have a fitted effect of over 60% in size
- EXPERIMENTAL SETUP: P. falciparum in erythrocytes, SYBR Green DNA, 72 h; series mostly up to 28.7 µM
Records with an inconclusive call do not appear. The source made the active and inactive calls. The call rests on the fitted dose curve; in most records, active means well fitted inhibition curve with a large enough effect; inconclusive means small, poorly fitted or top-dose-only effect; inactive means flat fitted curve, though single readings scatter.
Outcome field: choose from T (active), F (inactive)

Known results for molecules:
{"columns": ["MOLECULE", "CLASSIFICATION"],
 "data": [
  ["CC12NC(Cc3ccccc31)c1ccccc12 (stereo not drawn)", "T"],
  ["CCOP(=O)(OCC)O/C(=C/Cl)c1ccc(Cl)cc1Cl", "F"],
  ["CCC1C(C)=NN=C(c2ccc(OC)c(OC)c2)c2cc(OC)c(OC)cc21 (stereo not drawn)", "F"]
]}

Inquiry: Any idea what this test logged for CCCCCCCCOC(=O)c1ccccc1C(=O)OCCCCCCCC ?
Reply text: F

Inquiry: Another molecule: FC(F)OC(F)(F)C(F)Cl (stereo not drawn)
Reply text: F

Inquiry: Another molecule: O=C1CCCCC1CN1CCCCC1 (stereo not drawn)
Reply text: F

Inquiry: Another molecule: CN1c2ccccc2C(NCCCCCCC(=O)O)c2ccc(Cl)cc2S1(=O)=O (stereo not drawn)
Reply text: F

Inquiry: Another molecule: O=[N+]([O-])c1cc(I)c(O)c(I)c1
Reply text: F

Inquiry: Another molecule: CC(C)(O)C1C2OC(=O)C1C1(O)CC3OC34C(=O)OC2C14C (stereo not drawn)
Reply text: F

Inquiry: Another molecule: [Cl-].[Cl-].[Hg+2]
Reply text: T

Inquiry: Another molecule: CCC1(c2ccccc2)C(=O)NC(=O)NC1=O
Reply text: F

Inquiry: Another molecule: Clc1ccc(Cl)cc1
Reply text: F

Inquiry: Another molecule: [O]=[Cd]
Reply text: F
